Assay Method Text: MTT cytotoxicity assay in three cell lines (Example 2)
Type: cell-based, human, mouse
Experimental Parameters: HEK293, HepG2 and 4T1 cells; blank nanoparticles and pDNA complexes, even at higher N/P ratios
Where no end group is shown, it is not given here.
Property Name: viability at 4 h

AAAAAAAAAAAAHHHHHKKKKKKKKKK [AK27, (A)12(H)5(K)10] :: > 80%

Attention now turns to another entry.
Q. Entry AAAAAAAAAAAAHHHHHKKKKKKKKKKKKKKK [AK32, (A)12(H)5(K)15] has what viability at 4 h?
A. > 80%

====

Assay Method Text: MTT cytotoxicity assay in 4T1 (Example 1)
Type: cell-based
Experimental Parameters: mouse, 4T1 cells; read-out: cells viable at peak luciferase expression
Where no end group is shown, it is not given here.
Property Name: viability at 4 h

Q. Entry IIIIIHHHHRRRRRRRR-NH2 [I, NH2—I5H4R8—CONH2] has what viability at 4 h?
A. ~90%

Cited source for all entries: patent US20100286069A1
